Tested on: MS2 coat protein
ASSAY_NAME: apparent KD of MS2 coat protein; designed switch direction (-1 OFF switch, 1 ON switch): -1; higher = weaker reporter binding
CONDITION_DETAILS: Eterna round: R95; input ligand: microRNA oligo, concentration not stated
ASSAY_METRIC: apparent KD of MS2 coat protein

Find the measured apparent KD of MS2 coat protein of CUCUACGGAGGAUAUACAACCGGUUAUCCCUGUGGAACGCCACAUGAGGAUCACCCAUGUAGAAGGCCGAGAAA [Ceones] (puzzle: Exclusion 2) and report it.
211 nM

Supply reported apparent KD of MS2 coat protein belonging to this sequence: AGUGCGUAUGUGAGGAUAUGCUGGUCCUUGGAUCGGCAGAAGGCACAUGAGGAUCACCCAUGUGGUGUCGUACC [salish99_Bmod_ex4_076] (puzzle: Brourd's mod of Exclusion 4)
136 nM

Answer with the recorded apparent KD of MS2 coat protein for the sequence listed here: CCUCAGUAAGGAUAUCAGCUUAUGGAGUUGGUAAUGAGAGCUGAGAAGGUACAUGAGGAUCACCCAUGUUAGUU [JL Zatite mod 2] (puzzle: Exclusion 4)
25.4 nM

Determine its reported apparent KD of MS2 coat protein: GUGUAGCGAGGAUAUACAUGAGGAUCACCCAUGUGAAUAAGAUAGAAUAAGAUAAAGUGUAGAAGGUGUAGUGU [Excluse me!!! 11 - Jieux - Exclusion 3] (puzzle: Exclusion 3)
56 nM

Item CCGGAAUUGAAGGAUAUAGGAGUCGAUAGACACCUAGAAGGUCAGACAUGAGGAUCACCCAUGUGUCCUACCGG [Fiskers Ex 6 - 86] (puzzle: Exclusion 6) : provide apparent KD of MS2 coat protein
21 nM

Please indicate apparent KD of MS2 coat protein recorded for GGUGGACAUGAGGAUCACCCAUGUGAGGAUAUCGGCUAUCUUGUCGCUGUCGGUUGCUCGAGAAGGCACAUUGU [Exclusion 1 V95] (puzzle: Exclusion 1)
69.2 nM

Fill in apparent KD of MS2 coat protein for record GAUUAUGCGAGCUUUAGGGACAUGAGGAUCACCCAUGUUCGUCUUAUUAGUCUAGAUGCACUGACAUACCUAAAUCU [JMF 78] (puzzle: Sensor v3, turn-off variant 1)
19.6 nM

Identify apparent KD of MS2 coat protein associated with the sequence GUAGAGUAAGGAUAUGCUGAAUAGGAUAGAAUGGUUAGAAAGUAGAAGGUACAUGAGGAUCACCCAUGUAAUGU [Excluse me!!!! 24 - Jieux - Exclusion 4] (puzzle: Exclusion 4)
20.3 nM

Determine its reported apparent KD of MS2 coat protein: GUAGAGUCAGGAUAUACAGAAGAAGCAUGGAAAACAUGGAUACAUGAGGAUCACCCAUGUAGAAGGGACUCUAC [ChP 11-04-2015 #2] (puzzle: Exclusion 2)
33.2 nM

Give the reported apparent KD of MS2 coat protein for this sequence. AAAUCCGCUGAGGAUAUGAUGACUGAGAGGUCAUCAGAAGGCGGUACAUGAGGAUCACCCAUGUCUAUGGGCAA [Ex-6 Malc#29] (puzzle: Exclusion 6)
317 nM

State its apparent KD of MS2 coat protein: GCUGGAGCAGGAUAUUCAAUAUCACACAUGAGGAUCACCCAUGUCCAGCGAAAGCUGGAGGGAGAAGGGCUCUAGC [Mat - Exclusion 5 - Eli mod - D98] (puzzle: Exclusion 5)
60.4 nM

Give reported apparent KD of MS2 coat protein value for CCGGAAAUGCAGGAUAUCGUAUCGGAUACGAUACGAGAAGGGUAUACAUGAGGAUCACCCAUGUGUCCUCCCGG [Fiskers Ex 6 - 53] (puzzle: Exclusion 6)
28 nM

Identify apparent KD of MS2 coat protein associated with the sequence AAUAACAGAGGAUAUACUAUUUUAUGUGUUUAUUGUUUUAAACAUGAGGAUCACCCAUGUAGAAGGCUGAUUAA [JMF 45] (puzzle: Exclusion 2)
61.9 nM

Identify measured apparent KD of MS2 coat protein associated with AUCAUGUAAGGAUAUCUUACAUGUGACUUCGGUCACAGUUAAGAGAAGGUACAUGAGGAUCACCCAUGUAUAAC [Ex4-3: 37] (puzzle: Exclusion 4)
25.3 nM

Supply reported apparent KD of MS2 coat protein belonging to this sequence: GGUUGACAUGAGGAUCACCCAUGUGAGGAUAUGCGAGAGAAAAAAGUGAGGAAGUUUAGCAGAAGGCGCUGUCG [salish99-ex1_r3_006] (puzzle: Exclusion 1)
71 nM

Please give measured apparent KD of MS2 coat protein of the following entry: UUUUAACAUGAGGAUCACCCAUGUGAGGAUAUCGAAAUUUAUAUUUAUAUUAAUAUUUCGAGAAGGCACAUUUU [JMF 81] (puzzle: Exclusion 1)
176 nM

Return value of apparent KD of MS2 coat protein for input ACUCUGCGAGGAUAUACAUGAGGAUCACCCAUGUGCGAGUUACUUGUGAGGUCGGUUGGUAGAAGGCGCGGAGA [Mat - Exclusion 3 - Mod of JL D101] (puzzle: Exclusion 3) , no commentary.
89.7 nM

Find the measured apparent KD of MS2 coat protein of UCCAUCCCUGUGAGGAUAUCGUCCGUUUUUUGUUCCGAGAAGGCACAUGAGGAUCACCCAUGUUUUUUGUUUUU [JR_BMOE4_Sub077] (puzzle: Brourd's mod of Exclusion 4) and report it.
30.2 nM

Give reported apparent KD of MS2 coat protein value for GCAUCCAAAGUGAGGAUAUACCUCUGGAUACAGAGGUAGAAGGCACAUGAGGAUCACCCAUGUUUCUAGGAUGC [Fiskers BMX 4 - 37] (puzzle: Brourd's mod of Exclusion 4)
13.3 nM

Entry CUUAGACAUGAGGAUCACCCAUGUGAGGAUAUGAUGCGGGAGACGAAAAGUUUCAGCAUCAGAAGGCACAUAUG [mod of disincluded 3 v.3 (my top score 87 - 34% A's)] (puzzle: Exclusion 1) needs its apparent KD of MS2 coat protein filled in; supply it.
175 nM

Fill in reported apparent KD of MS2 coat protein for this entry: AAAUAACAAGCAAGAUCCUACAUGAGGAUCACCCAUGUGCUCGUCUUAUAAAGUACUAUCACGAAAGUGAUAGUACA [Sensor 3, v1 - 11] (puzzle: Sensor v3, turn-off variant 1)
392 nM

====

System: MS2 coat protein
ASSAY_NAME: apparent KD of MS2 coat protein; designed switch direction (-1 OFF switch, 1 ON switch): 1; higher = weaker reporter binding
CONDITION_DETAILS: input ligand: microRNA oligo, concentration not stated
ASSAY_METRIC: apparent KD of MS2 coat protein (nM)
Use nM as the unit, but write only the number.

Identify the reported apparent KD of MS2 coat protein for the following entry. GGCCGGCCGAACGGAGGGCCACAUGAGGAUCACCCAUGUACAUAGGAUAUCAUGUCAACGAGGCAUGAGAAGGGUGAUUAAAGC [Orenriaran] (Eterna round: R96, puzzle: Same State NG 3)
72.9

Return the recorded apparent KD of MS2 coat protein value; entry: GAGCCAGUCCGAGGAUAUUCAUAUUAACACAUGAGGAUCACCCAUGUAGGCUCAGAAGAGCCCUGGGAGAAGGCGGACUGGCUC [SS-NG2-LRO15] (Eterna round: R96, puzzle: Same State NG 2)
455

Answer with reported apparent KD of MS2 coat protein of CGCCAGAGAACAGGAUAUGGGCCGCGGCCUAAGGGCUGCUAACUCACAUGAGGAUCACCCAUGUCCCAGAAGGGUUCCUGGCUG [Gexeso] (Eterna round: R96, puzzle: Same State NG 2)
31.4

Supply reported apparent KD of MS2 coat protein belonging to this sequence: AGUCCAGCCUGAGCUGGACAAAAGCAUGUACAUGAGGAUCACCCAUGUUCAUGUACAAGCUUUUUGCUCGUCUUAAA [JL zipper 52] (Eterna round: R96, puzzle: Sensor for hsa-mir-208a)
13.8

Look up and state reported apparent KD of MS2 coat protein for GGAAGGAGGUCAGGAUAUGAACGGAAGGUACAUGAGGAUCACCCAUGUUACGGAGGAAGGAAACGUUAGAAGGGACAAGGAAGG [AK SSNG2-V2-3] (Eterna round: R96, puzzle: Same State NG 2)
12.8

====

Can you tell me apparent KD of MS2 coat protein for the items I'm about to list?
Test system: MS2 coat protein
ASSAY_NAME: apparent KD of MS2 coat protein; designed switch direction (-1 OFF switch, 1 ON switch): -1; higher = weaker reporter binding
CONDITION_DETAILS: input ligand: FMN 200 uM
Write it as a number; the unit nM goes unstated.

State measured apparent KD of MS2 coat protein of the sequence UACAUGAGGAUCACCCAUGUUUUGUCGUGUAUGGUAUUUAUCUAGGAUAUCAUUAUAUUUAGUUAUGAGAAGGAGAAUAUUAAU [JMF's solution 82] (Eterna round: R96, puzzle: Exclusion NG 3) with MS2 coat protein.
28.1

// fetch apparent KD of MS2 coat protein; item: UUGUUGUAUGUAGGAUAUGCAUGUUAUUAUUAUGCAGAAGGACAUGAGGAUCACCCAUGUAUAUUAUUAUUAUAUGUUAUAUAU [Title] (Eterna round: R96, puzzle: Exclusion NG 1) ; system: MS2 coat protein
22.2

Enter apparent KD of MS2 coat protein (test system MS2 coat protein) for CGCCUGUAAGGAUAUUAGUAGUAGUCAGAAUAGACUAUUACUGAGAAGGUACAUGAGGAUCACCCAUGUUGGCG [Eli x4 4.10] (Eterna round: R97, puzzle: Exclusion 4)
19.7
